# protocol: Stability/pharmacokinetics of nitroxide in the CSF of dogs (nitroxide concentration)
# Type: in vivo
# condition.set: 20 umol/animal, dog, 90 min after 2 ml of 10 mM into spinal cavity, average of 4 studies

chemical.smiles | concentration at 1.5 h, µM
CC[N+](C)(C)C1CC(C)(C)N([O])C(C)(C)C1 | 220

###

# protocol: Stability/pharmacokinetics of nitroxide in the CSF of dogs (nitroxide concentration)
# Assay type: in vivo
# condition.set: 20 umol/animal, dog, 75 min after 2 ml of 10 mM into spinal cavity, average of 4 studies

chemical.smiles | concentration at 1.25 h [µM]
CC[N+](C)(C)C1CC(C)(C)N([O])C(C)(C)C1 | 450

###

# protocol: Stability/pharmacokinetics of nitroxide in the CSF of dogs (nitroxide concentration)
# Format: in vivo
# condition.set: 20 umol/animal, dog, 30 min after 2 ml of 10 mM into spinal cavity, average of 4 studies
# Procedure: Dogs (data is the average of 4 independent studies) under general anesthetic were injected with 2 ml of a 10 mM stock solution of 4-(N,N,N-dimethylethylamino)-2,2,6,6-tetramethylpiperidin-oxyl iodide in saline (0.9%) into the spinal cavity (3 cm below the head). At defined times, samples of CSF were removed from a catheter inserted at the point of injection. The samples were analyzed for nitroxide concentration and relaxation times. […]
experimental.endpoint: concentration at 0.5 h

chemical.smiles | test.result
CC[N+](C)(C)C1CC(C)(C)N([O])C(C)(C)C1 | 2000 µM

###

# protocol: Stability/pharmacokinetics of nitroxide in the CSF of dogs (nitroxide concentration)
# Type: in vivo
# condition.set: 20 umol/animal, dog, 20 min after 2 ml of 10 mM into spinal cavity, average of 4 studies

chemical.smiles | concentration at 20 min / µM
CC[N+](C)(C)C1CC(C)(C)N([O])C(C)(C)C1 | 2200

###

# protocol: Stability/pharmacokinetics of nitroxide in the CSF of dogs (nitroxide concentration)
# Format: in vivo
# condition.set: 20 umol/animal, dog, 5 min after 2 ml of 10 mM into spinal cavity, average of 4 studies

chemical.smiles | concentration at 5 min (µM)
CC[N+](C)(C)C1CC(C)(C)N([O])C(C)(C)C1 | 3800

###

# protocol: Stability/pharmacokinetics of nitroxide in the CSF of dogs (nitroxide concentration)
# Format: in vivo
# condition.set: 20 umol/animal, dog, 60 min after 2 ml of 10 mM into spinal cavity, average of 4 studies
experimental.endpoint: concentration at 1 h (µM)

chemical.smiles | experimental.endpoint | test.result
CC[N+](C)(C)C1CC(C)(C)N([O])C(C)(C)C1 | concentration at 1 h | 720
